# TESTED_TARGET: Signal transducer and activator of transcription 3 (Homo sapiens, UniProt P40763)
# Sequence (P40763 whole entry): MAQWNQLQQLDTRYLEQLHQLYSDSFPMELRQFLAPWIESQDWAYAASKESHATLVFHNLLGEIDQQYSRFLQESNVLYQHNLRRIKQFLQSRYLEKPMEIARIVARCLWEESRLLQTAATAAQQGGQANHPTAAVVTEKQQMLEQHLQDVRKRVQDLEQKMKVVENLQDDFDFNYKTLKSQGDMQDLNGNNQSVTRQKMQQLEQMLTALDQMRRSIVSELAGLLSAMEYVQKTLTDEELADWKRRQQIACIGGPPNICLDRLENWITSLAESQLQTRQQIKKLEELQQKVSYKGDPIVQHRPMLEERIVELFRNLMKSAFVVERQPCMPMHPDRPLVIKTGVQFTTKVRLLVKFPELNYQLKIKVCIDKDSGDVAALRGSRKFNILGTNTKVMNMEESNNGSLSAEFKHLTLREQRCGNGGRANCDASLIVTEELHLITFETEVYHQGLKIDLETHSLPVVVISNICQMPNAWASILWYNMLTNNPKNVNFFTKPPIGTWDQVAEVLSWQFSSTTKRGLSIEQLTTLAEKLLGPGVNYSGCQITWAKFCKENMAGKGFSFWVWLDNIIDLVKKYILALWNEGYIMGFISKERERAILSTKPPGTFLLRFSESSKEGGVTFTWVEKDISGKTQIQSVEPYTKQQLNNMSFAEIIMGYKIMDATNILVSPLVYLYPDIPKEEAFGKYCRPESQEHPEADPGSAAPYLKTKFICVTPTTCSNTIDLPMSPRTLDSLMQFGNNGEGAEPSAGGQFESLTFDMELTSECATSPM
Please go through the items and note down their pIC50.
By convention, pIC50 is the negative base-10 log of a molar concentration.

Ask: Name the reported pIC50 value associated with the compound CC(C)NC(=O)[C@H](CCC(N)=O)NC(=O)[C@@H]1Cc2cccc3c2N1C(=O)[C@@H](NC(=O)/C=C/c1ccc(OP(=O)(O)O)cc1)CC3
Reply: 6.52

Ask: Same question for NC(=O)CC[C@H](NC(=O)[C@@H]1Cc2cccc3c2N1C(=O)[C@@H](NC(=O)/C=C/c1ccc(OP(=O)(O)O)cc1)CC3)C(=O)NCc1ccccc1 please.
Reply: 6.79

Ask: Same question for NC(=O)CC[C@H](NC(=O)[C@@H]1CC[C@@H]2CC[C@H](NC(=O)/C=C/c3ccc(OP(=O)(O)O)cc3)C(=O)N21)C(=O)NCc1ccccc1 please.
Reply: 6.22

Ask: Same question for CNC(=O)[C@H](CCC(N)=O)NC(=O)[C@@H]1Cc2cccc3c2N1C(=O)[C@@H](NC(=O)/C=C/c1ccc(OP(=O)(O)O)cc1)CC3 please.
Reply: 6.57

Ask: Same question for C[S+]([O-])CC[C@H](NC(=O)[C@@H]1Cc2cccc3c2N1C(=O)[C@@H](NC(=O)/C=C/c1ccc(OP(=O)(O)O)cc1)CC3)C(N)=O (stereo partly specified) please.
Reply: 5.12
